- tgt: Estrogen receptor (Homo sapiens) (UniProt P03372)
- Sequence (P03372 whole entry, looked up): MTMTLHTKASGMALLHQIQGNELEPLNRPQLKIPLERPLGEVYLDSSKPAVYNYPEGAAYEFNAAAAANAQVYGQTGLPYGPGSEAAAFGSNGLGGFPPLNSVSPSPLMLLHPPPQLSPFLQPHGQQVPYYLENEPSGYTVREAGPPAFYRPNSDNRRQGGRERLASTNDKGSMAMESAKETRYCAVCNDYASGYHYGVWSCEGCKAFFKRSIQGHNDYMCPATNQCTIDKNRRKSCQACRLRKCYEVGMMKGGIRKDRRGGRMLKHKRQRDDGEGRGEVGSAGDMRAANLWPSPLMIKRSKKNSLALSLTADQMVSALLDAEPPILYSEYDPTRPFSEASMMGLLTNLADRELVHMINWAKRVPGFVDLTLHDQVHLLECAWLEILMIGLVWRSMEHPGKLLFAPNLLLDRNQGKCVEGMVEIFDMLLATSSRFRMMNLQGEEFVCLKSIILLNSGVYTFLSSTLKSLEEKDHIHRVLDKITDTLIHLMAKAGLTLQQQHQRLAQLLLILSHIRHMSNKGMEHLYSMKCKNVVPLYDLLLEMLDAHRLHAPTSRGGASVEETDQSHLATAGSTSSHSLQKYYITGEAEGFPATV
- experiment: CCTE_Deisenroth_AIME_384WELL_LUC_Active: CCTE's 384-well Estrogen Receptor Transactivation Assay with AIME metabolic competence (ERTA luciferase; metabolism positive), Deisenroth Lab (AID 2284030)
Results filed as inconclusive are left out. Activity calls are given as the source filed them. How the source made its calls: active means hit-call score of the fitted dose curve at least 0.9, where 1 is the maximum; inconclusive means response in the unintended direction; inactive means score below 0.9.
Can you answer with just one of these options? active, inactive

The following compounds have reported results that may help.
COCC(C)OCC(C)O (stereo not drawn): inactive
COC(=O)CCCCC(=O)OC: inactive
CN1CCC[C@H]1c1cccnc1: inactive
Cc1ccc(S(=O)(=O)O)c(C)c1: inactive
CC#C[C@]1(O)CC[C@H]2[C@@H]3CCC4=CC(=O)CCC4=C3[C@@H](c3ccc(N(C)C)cc3)C[C@@]21C: inactive
CCCCOCCO: inactive
CCCCCCCCCCCCCCCS(=O)(=O)Oc1ccccc1: active

In: Can you look up the reported call for CCCCC(CC)COC(=O)CCCCC(=O)OCc1ccccc1 (stereo not drawn) for me?
Out: inactive

----------
- Read-out: Transforming Growth Factor (TGFB1), TGFB1 (gene 7040)
- experiment: LTEA_HepaRG_TGFB1: Life Technologies and Expression Analysis (LTEA) Assay for Transforming Growth Factor (TGFB1) Transporter using HepaRG (AID 2283533)
- conditions: mRNA level, 48 h; actives raise or lower the signal
Active and inactive are the calls of the source. Rule for the calls: active = hit-call score of the fitted dose curve at least 0.9, where 1 is the maximum; inactive = score below 0.9.
observable: AC50

CC1=C(/C=C/C(C)=C/C=C/C(C)=C/C(=O)O)C(C)(C)CCC1: inactive
COCC(C)OCC(C)O (stereo not given): inactive
CC#C[C@]1(O)CC[C@H]2[C@@H]3CCC4=CC(=O)CCC4=C3[C@@H](c3ccc(N(C)C)cc3)C[C@@]21C: 3.49 µM (active)
CC(C)(C)c1ccc(O)c(C(C)(C)C)c1: inactive

In: Name the reported AC50 value associated with the compound CC(C)(C)c1cc(C(C)(C)C)c(O)c(C(C)(C)C)c1
Out: inactive

----------
- Read-out: Plasminogen activator inhibitor-1 (PAI1), SERPINE1 (gene 5054)
- experiment: BSK_hDFCGF_PAI1: BioMAP Diversity Plus: hDFCGF Assay for Plasminogen activator inhibitor-1 (PAI1) Biomarker Activity (AID 2283066)
- conditions: primary human foreskin fibroblasts; actives raise or lower the signal
Active and inactive are the calls of the source. The calls were made as follows: active = hit-call score of the fitted dose curve at least 0.9, where 1 is the maximum; inactive = score below 0.9.
Can you answer with just one of these options? 1.0 (active), 0.0 (inactive)

The following compounds have reported results that may help.
CN1CCN(c2ccccc2/C=C2\SCCN(c3ccc(Cl)c(Cl)c3)C2=O)CC1: 1.0
CCCCCCCC(=O)O: 0.0
CCCCCCC(=O)O: 0.0
CCCCCCCCCCCCCC[N+](C)(C)C: 1.0
COCC(C)O (centres undefined): 0.0

In: Can you look up the reported call for O=C(OCCOCCOC(=O)c1ccccc1)c1ccccc1 for me?
Out: 0.0

In: Can you look up the reported call for CC(C)CCCCCCOC(=O)CCCCC(=O)OCCCCCCC(C)C for me?
Out: 0.0

In: Can you look up the reported call for CC1=C(/C=C/C(C)=C/C=C/C(C)=C/C(=O)O)C(C)(C)CCC1 for me?
Out: 1.0

In: Can you look up the reported call for ClC1=C(Cl)C(Cl)(Cl)C(Cl)=C1Cl for me?
Out: 1.0

In: Can you look up the reported call for CCCOc1sc(C(=O)N2CCC(c3cc(CN)ccc3F)CC2)c(C)c1Br for me?
Out: 1.0

In: Can you look up the reported call for CCCCCCCCCCCCc1ccccc1S(=O)(=O)O for me?
Out: 1.0

In: Can you look up the reported call for c1ccc2c(c1)ccc1ccccc12 for me?
Out: 0.0

In: Can you look up the reported call for CCc1nn(C2CCCCC2)c2cc(C3(C#N)CCC(C(=O)O)CC3)ccc12 (centres undefined) for me?
Out: 1.0

In: Can you look up the reported call for CCC(=C(c1ccc(O)cc1)c1ccc(OCCN(C)C)cc1)c1ccccc1 for me?
Out: 1.0

----------
- Read-out: Monocyte Chemoattractant Protein-1 (MCP1), CCL2 (gene 6347)
- experiment: BSK_3C_MCP1: BioMAP Diversity Plus: 3C Assay for Monocyte Chemoattractant Protein-1 (MCP1) Biomarker Activity (AID 2283017)
- conditions: primary human endothelial cells (HUVEC); actives raise or lower the signal
Activity calls are given as the source filed them. How the source made its calls: active means hit-call score of the fitted dose curve at least 0.9, where 1 is the maximum; inactive means score below 0.9.
Can you answer with just one of these options? class 1 for active, class 0 for inactive

The following molecules have reported results that may help.
C=C(C)C(=O)OCCC(F)(F)C(F)(F)C(F)(F)C(F)(F)C(F)(F)C(F)(F)F: class 0
Cc1cc(C)c(O)c(C)c1: class 0
COCC(C)O (configuration not stated): class 0

API: the following record is the query input.
In: Can you look up the reported call for NCC(F)(F)C(F)(F)C(F)(F)C(F)(F)C(F)(F)C(F)(F)C(F)(F)F for me?
Out: class 0

----------
- experiment: APR_HepG2_MitoMass_72hr: Apredica 72-hour HepG2 Assay for Mitochondrial Mass (AID 2282924);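 further: MitoTracker Red CMXRos stain intensity per cell imaged as mitochondrial mass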
- conditions: high-content imaging, actives raise or lower the signal
- Method: APR_HepG2_72hr is a cell-based, multiplexed-readout assay that uses HepG2, a human liver cell line, with measurements taken at 72 hours after chemical dosing in a 384-well plate.APR_HepG2_MitoMass_72hr is one of 10 assay component(s) measured or calculated from the APR_HepG2_72hr assay. […] This assay endpoint, APR_HepG2_MitoMass_72hr, was analyzed with bidirectional fitting relative to DMSO as the negative control and baseline of activity. […]
Active and inactive are the calls of the source. The calls were made as follows: active = hit-call score of the fitted dose curve at least 0.9, where 1 is the maximum; inactive = score below 0.9.
observable: AC50

The examples below pair each entry with its known result.
CCCOc1sc(C(=O)N2CCC(c3cc(CN)ccc3F)CC2)c(C)c1Br: 44.5 µM (active)
COCC(C)O (stereo unspecified): inactive
c1ccc2cc3c(ccc4ccccc43)cc2c1: inactive
OC1CCCCC1: inactive
O=C(OCCOCCOC(=O)c1ccccc1)c1ccccc1: inactive

Consider the record given below.
In: Name the reported AC50 value associated with the compound CCc1nn(C2CCCCC2)c2cc(C3(C#N)CCC(C(=O)O)CC3)ccc12 (stereo unspecified)
Out: inactive

----------
- Read-out: TIMP metallopeptidase inhibitor 2 (TIMP2), TIMP2 (gene 7077)
- experiment: BSK_KF3CT_TIMP2: BioMAP Diversity Plus: KF3CT Assay for TIMP metallopeptidase inhibitor 2 (TIMP2) Biomarker Activity (AID 2283071)
- conditions: primary human keratinocytes with fibroblasts; actives raise or lower the signal
Active and inactive are the calls of the source. The calls were made as follows: active = hit-call score of the fitted dose curve at least 0.9, where 1 is the maximum; inactive = score below 0.9.
Can you answer with just one of these options? active, inactive

Cc1cc(CCN2CCN(c3nsc4ccccc34)CC2)cc2c1NC(=O)CC2(C)C: active
Nc1cccc2c(N)cccc12: inactive
COCC(C)OCC(C)O (stereo not given): inactive

In: Can you look up the reported call for OC1CCC(C2CCCCC2)CC1 (stereo not given) for me?
Out: inactive

In: Can you look up the reported call for O=C(O)Cc1cc(I)c(Oc2cc(I)c(O)c(I)c2)c(I)c1 for me?
Out: active

----------
- experiment: ATG_AP_2_CIS: Attagene CIS-FACTORIAL HepG2 Assay for human Activator Protein 2 (AP-2) (AID 2282932)
- conditions: HepG2 AP-2 cis-reporter, Attagene transcription factor profiling; actives raise or lower the signal
Calls of active or inactive are those of the source. How the source made its calls: active means hit-call score of the fitted dose curve at least 0.9, where 1 is the maximum; inactive means score below 0.9.
Can you answer with just one of these options? class 1 = active, class 0 = inactive

The following compounds have reported results that may help.
COc1ccc([N+](=O)[O-])cc1N: class 0
CCCCC(CC)COC(=O)CCCCC(=O)OCC(CC)CCCC (stereo not given): class 0
Cc1cc(CCN2CCN(c3nsc4ccccc34)CC2)cc2c1NC(=O)CC2(C)C: class 0
CCCCCCCCCCCCCCCS(=O)(=O)Oc1ccccc1: class 0
OCCC(F)(F)C(F)(F)C(F)(F)C(F)(F)C(F)(F)C(F)(F)C(F)(F)C(F)(F)F: class 0

In: Can you look up the reported call for CN(C)C=O for me?
Out: class 0

In: Can you look up the reported call for CC[C@H](C)[C@@H](C(=O)O)n1sc2ccccc2c1=O for me?
Out: class 0

In: Can you look up the reported call for Oc1cccc(O)c1 for me?
Out: class 0

In: Can you look up the reported call for CCCOC(=O)c1ccc(O)cc1 for me?
Out: class 0

----------
- experiment: ATG_Ets_CIS: Attagene CIS-FACTORIAL HepG2 Assay for human Erythroblast Transformation Specific (ETS) (AID 2282941)
- conditions: HepG2 ETS cis-reporter transcription, actives raise or lower the signal
The source made the active and inactive calls. How the source made its calls: active means hit-call score of the fitted dose curve at least 0.9, where 1 is the maximum; inactive means score below 0.9.
observable: outcome

OC1CCC(C2CCCCC2)CC1 (stereo not drawn): inactive
COCC(C)OCC(C)O (stereo not drawn): inactive
CC1=C(/C=C/C(C)=C/C=C/C(C)=C/C(=O)O)C(C)(C)CCC1: inactive
